The values you see were collected from ChEMBL document CHEMBL1201862.

Test system: OVCAR-3
test-details: NCI tumour cell line growth inhibition, 48 h
Activity calls are given as the source filed them. Cut-off read from the data, not from the text of the source: active = GI50 up to about 1.1 µM and inactive = higher.
Below is a list of entries, each paired with its recorded GI50 value.

The cases that follow already have their GI50 on record.
molecule: O=S1(=O)CCN(Cc2ccccc2)/C1=N\S(=O)(=O)c1ccc(Cl)cc1
GI50: 19.4 µM (inactive)
//
molecule: CN(C)CCCNC(=O)c1c(-c2cccnc2)cnc2ccccc12
GI50: > 100 µM (inactive)
//
molecule: CC(C)(C)c1cc(C2NC(=O)NC2=O)cc(C(C)(C)C)c1O (stereo not given)
GI50: 34.1 µM (inactive)
//
molecule: Cc1ncc([N+](=O)[O-])n1CCNC(=O)CCCCn1ccnc1[N+](=O)[O-]
GI50: > 100 µM (inactive)

Shift focus to the following entry.
Consider the molecule "CCOC(=O)C1(Cc2ccccc2)C=CN(C(=O)c2ccccc2)C=C1" . State its measured GI50. 41.3 µM (inactive)

====

Test system: SK-OV-3
test-details: NCI tumour cell line growth inhibition, 48 h
Activity calls are given as the source filed them. Rule as the data show it: active = GI50 up to about 1.1 µM and inactive = higher.
Would you mind answering with one of these outcomes? T = active, F = inactive

See these solved cases before continuing.
compound: C1OC1C1CO1 (stereo not given)
assigned-label: F
//
compound: O=C(N/N=C\c1c(O)ccc2ccccc12)c1ccncc1
assigned-label: T
//
compound: CSc1c(C(=O)Nc2ccc(Cl)cc2)c(N)nn1-c1ccccc1
assigned-label: F
//
compound: Cc1ccc(S(=O)(=O)NC(=O)Nc2c(S(N)(=O)=O)cc(S(N)(=O)=O)c(Cl)c2Cl)cc1
assigned-label: F

Hi, sorry to bother you, what did the test record for "Cc1c(C#N)c(=O)[nH]c(=O)n1CCN1CCN(C(=O)NCCCCCCNC(=O)N2CCN(CCn3c(C)c(C#N)c(=O)[nH]c3=O)CC2)CC1" ? F

Which result was noted for this compound in the test: "CC1=C(C(=O)OCc2ccncc2)C(C2=C(C)SCCS2)C(C(=O)OCc2ccncc2)=C(C)N1" F

# lookup: test call for "CN(C)c1nc(N(C)C)n2nc(-c3ccccc3[N+](=O)[O-])nc2n1" F

In this assay, the call recorded for COc1ccc2c(c1)CCN1CCc3ccccc3CC21 (stereo not given) was what? F

Please let me know the test result on file for COc1cccc(N2C(=O)C3c4[nH]c5ccccc5c4C4c5ccccc5CCC4C3C2=O)c1 (stereo not given) . F

Could you check what this test reported for "COc1ccc(/C=C/C(=O)c2cc(C(C)(C)C)c(O)c(C(C)(C)C)c2)cc1OC" ? F

What classification did "C/C(=N/NC(=S)N1CCCCC1)c1cccc(/C(C)=N\NC(=S)N2CCCCC2)n1" end up with in this test? F

I'd appreciate the recorded outcome for "CCCCCOC(=O)C(=O)Nc1[nH]nnc1C(N)=O" from this test. F

Hi team, can someone confirm the assay call for "CCCN1C(=O)CN(S(=O)(=O)c2ccc(Cl)cc2)C1=O" ? F

State the result this test recorded for CCOC(=O)c1csc(NC(=O)C(C)N2CCOCC2)n1 (stereo not given) . F

Lab log entry: "COc1cccc([C@@H]2C/C(=N\NC(=O)C(=O)N[C@@H](C)c3ccccc3)c3ccccc3N2)c1" — outcome as called in the assay? F

====

Test system: HCC 2998
test-details: NCI tumour cell line growth inhibition, 48 h
The source made the active and inactive calls. Rule as the data show it: active = GI50 up to about 1.1 µM and inactive = higher.
Classes to choose from: true (active), false (inactive)

Recorded results for 3 molecules are shown here.
molecule: O=C(Nn1c(-c2ccccc2)nc2ccccc2c1=O)c1ccc(Cl)cc1
assigned-label: false
//
molecule: COc1ccc2cccc(C(=N)c3ccc(C)c4c3CCC4)c2c1
assigned-label: false
//
molecule: COc1ccc2[nH]c3c(C)c4c(c(C)c3c2c1)CN(C)CC4
assigned-label: false

Query molecule follows.
Any idea what this test logged for "COc1cc2ccccc2oc1=O" ? false

====

Tested on: HCT-116
test-details: NCI tumour cell line growth inhibition, 48 h
Activity calls are given as the source filed them. Cut-off read from the data, not from the text of the source: active = GI50 up to about 1.1 µM and inactive = higher.
parameter-measured: GI50

Worked cases, answers included:
compound: CC(=O)c1ccc2c(c1)oc(=O)n2CCN(C)C
experimental-target: HCT-116
GI50: > 100 µM (inactive)

compound: COC1=CC(=O)C2C(C1=O)C(c1ccc(OC)c(OC)c1)[C@H]2C (stereo not given in full)
experimental-target: HCT-116
GI50: 18 µM (inactive)

compound: O=[N+]([O-])/C=C(\CS(=O)(=O)c1ccccc1)c1ccc2c(c1)OCO2
experimental-target: HCT-116
GI50: 34.8 µM (inactive)

compound: S=C1CC(c2ccc(Cl)cc2)Sc2ccccc2N1 (stereo not given)
experimental-target: HCT-116
GI50: 19.1 µM (inactive)

Specify GI50 for C=C1CC(OC)(C(OC)C(=O)N(C)[C@H]2OCO[C@H]3C2O[C@H](C[C@@H](COC)OC)C(C)(C)C3OC)O[C@H](C)[C@@H]1C (stereo not given in full) and stop. 9.44 µM (inactive)

====

Tested on: SK-MEL-2
test-details: NCI tumour cell line growth inhibition, 48 h
Activity calls are given as the source filed them. Rule as the data show it: active = GI50 up to about 1.1 µM and inactive = higher.
parameter-measured: GI50

molecule: Nc1nc(OCc2ccccc2)c2nc[nH]c2n1
experimental-target: SK-MEL-2
readout-value: 68.9 µM (inactive)
--
molecule: COc1ccc(S(=O)(=O)N2C(=O)CCC2C(=O)NN)cc1 (stereo not given)
experimental-target: SK-MEL-2
readout-value: > 100 µM (inactive)
--
molecule: COc1cccc2c1C(=N)c1c(O)c3c(c(O)c1C2=O)C[C@@](O)(C(C)=O)C[C@@H]3OC1CC(N)C(O)C(C)O1 (stereo not given in full)
experimental-target: SK-MEL-2
readout-value: 1.48 µM (inactive)
--
molecule: O=C1CCSCCC(=O)Nc2ccccc2N1
experimental-target: SK-MEL-2
readout-value: > 100 µM (inactive)
--
molecule: O=C1C2c3[nH]c4ccccc4c3C3CCCCCC3C2C(=O)N1c1ccccc1 (stereo not given)
experimental-target: SK-MEL-2
readout-value: 22.9 µM (inactive)

Kindly indicate its recorded GI50. Item: O=C1CC(c2ccccc2)C2(C(=O)NC(=S)NC2=O)C(c2ccccc2)C1 (stereo not given) > 75 µM (inactive)

Quick one: give measured GI50 for OC1(c2ccccc2)CC2CCC(C1)N2CCCC(O)(c1ccccc1)c1ccccc1 (stereo not given) 20.3 µM (inactive)

====

System: NCI/ADR-RES
test-details: NCI tumour cell line growth inhibition, 48 h
Calls of active or inactive are those of the source. Cut-off read from the data, not from the text of the source: active = GI50 up to about 1.1 µM and inactive = higher.
parameter-measured: GI50

Observe how each entry below is paired with its result.
compound: COC(=O)/C(=N\N)C(C(=O)C(=O)Nc1cc(Cl)ccc1Cl)c1nc2ccc([N+](=O)[O-])cc2nc1O (stereo not given)
GI50: > 100 µM (inactive)
//
compound: CCN(CC)CCCC(C)Nc1ccnc2cc3ccccc3cc12 (stereo not given)
GI50: 10.1 µM (inactive)
//
compound: COc1cccc([C@@H]2C/C(=N\NC(=O)C(=O)N[C@@H](C)c3ccccc3)c3ccccc3N2)c1
GI50: 65.2 µM (inactive)
//
compound: CC(C)=CC(C)C(C(O)CCC1(c2ccoc2)OCCO1)S(=O)(=O)c1ccccc1 (stereo not given)
GI50: 91.6 µM (inactive)
//
compound: COc1cc(C2SCC(=O)N2Cc2ccccc2)cc(OC)c1OC (stereo not given)
GI50: > 100 µM (inactive)

Write down GI50 measured for item "COc1cccc(/C=C\c2ccc(O)cc2)c1" 6.12 µM (inactive)

Look up and state reported GI50 for "COc1cc([C@@H]2c3cc4c(cc3C[C@H]3COC(=O)[C@@H]32)OCO4)cc2c1OCO2" < 0.01 µM (active)

Supply GI50 value. Item: "O=C1CCSCCC(=O)Nc2ccccc2N1" > 100 µM (inactive)

Answer with the recorded GI50 for the compound listed here: "CCCCCCCCCCCCO[PH](=O)OCCCCCCCCCCCC" > 100 µM (inactive)

Tell me measured GI50 for "NC(=O)C(=CN1CC(=O)NC1=S)C(N)=O" please. > 100 µM (inactive)

====

System: UACC-62
test-details: NCI tumour cell line growth inhibition, 48 h
Calls of active or inactive are those of the source. No stated cut-off is given here; in the data, active = GI50 up to about 1.1 µM and inactive = higher.
Your answer must be one of the following: active, inactive

compound: C(=C1/CCCCC([n+]2ccccc2)=N1)/c1ccccc1
assigned-label: inactive

compound: CSC1=C(c2ccc(Cl)cc2)SC(N2CCCCC2)N1c1ccc([N+](=O)[O-])cc1 (configuration not stated)
assigned-label: inactive

compound: Nc1cccc2nsnc12
assigned-label: inactive

What is the recorded call for this compound in the test? "COc1cccc([C@@H]2C/C(=N\NC(=O)C(=O)N[C@@H](C)c3ccccc3)c3ccccc3N2)c1" inactive

Name the outcome recorded for "CSC1=C(C(=O)Nc2ccccc2)C(N)=NC1=O" in the assay. inactive

Hey, what did the test say about "CCCNCC(=O)O[C@]1(CC)C(=O)OCc2c1cc1n(c2=O)Cc2cc3ccccc3nc2-1" ? active
